assay: logP determination by HPLC (EEC directive 79/831 Annex V. A8); type: physicochemical; conditions: gradient method, acetonitrile/0.1% aqueous phosphoric acid, preparation examples
METRIC_NAME: chromatographic logP
Lab note: record the figure alone, no unit after it.

// query For the compound shown here, `CON=C(C1=NOCCO1)c1ccccc1CSc1ccn(-c2ccc(Cl)cc2)n1` , give the reported chromatographic logP.
// result 3.69

// query // same read-out, input: `CON=C(C(=O)OC)c1ccccc1CSc1ccn(-c2ccc(Br)cc2)n1`
// result 4.07

// query // same read-out, input: `CNC(=O)C(=NOC)c1ccccc1CSc1ccn(-c2ccc(Br)cc2)n1`
// result 3.5

Data credit: patent US20030125325A1
